Task for the reader: assign each of the following compounds its reported composite z-score.
protocol.description: small-molecule microarray binders of probe aShh, primary screen, biochemical, biotinylated probe, 635/667 nm fluorescence (AID 1114);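 note: probe is biotin-labelled aShh protein from a stem cell growth factor screen; measures binding of labelled protein to compounds printed on the slide; score merges feature fluorescence at 667 nm with signal-to-noise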
measurement.setup: higher = more signal
Lab note: write the figure by itself, no unit.

Look at this compound and give its reported composite z-score. "COC(=O)C1=C(C)N(Cc2ccccc2)[C@]23O[C@](C(=O)OC)(C(=O)N2[C@@H]1c1ccccc1)C(C(=O)OC)=C3C(=O)OC" -0.138

Look at this compound and give its reported composite z-score. "COc1ccc(O[C@@H]2[C@H](O)CO[C@H]2C=Cc2ccccc2)cc1" -0.283

Look at this compound and give its reported composite z-score. "CCCCc1nc2c(c3c1C[C@H](C)OC3)CN(CCOc1ccccc1)CC2" -0.0977

Look at this compound and give its reported composite z-score. CCOC(=O)[C@H](CC(C)C)NC(=O)CCC1CC(OC(=O)NCc2cccc3ccccc23)CC2(CCCC(COC(=O)NCc3ccncc3)O2)O1 (some centres undefined) -0.0146
